B1: PhoQ; a variant is named by its letters at X, in order, P23837 (parent)
chain: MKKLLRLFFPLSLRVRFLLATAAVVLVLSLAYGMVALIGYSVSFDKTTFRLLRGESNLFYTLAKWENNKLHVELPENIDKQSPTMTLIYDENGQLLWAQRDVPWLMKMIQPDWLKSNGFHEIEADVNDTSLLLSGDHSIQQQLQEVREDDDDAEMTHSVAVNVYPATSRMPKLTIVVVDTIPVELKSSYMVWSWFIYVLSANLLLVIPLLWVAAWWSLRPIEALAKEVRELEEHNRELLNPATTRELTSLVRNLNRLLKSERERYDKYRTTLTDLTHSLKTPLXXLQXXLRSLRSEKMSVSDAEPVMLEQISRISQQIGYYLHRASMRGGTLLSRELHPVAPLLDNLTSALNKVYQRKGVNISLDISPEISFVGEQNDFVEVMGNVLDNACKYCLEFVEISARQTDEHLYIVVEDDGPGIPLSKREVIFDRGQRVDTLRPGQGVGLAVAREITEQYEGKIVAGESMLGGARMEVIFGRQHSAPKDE

Variants of: B1
assay.protocol: enrichment ratio after two sorts for PhoP signalling (ratio (wild type AVST 3.29)); higher = more functional
experimental.parameters: with PhoP (E. coli)
In all, about 140,000 sequences were measured (“enrichment ratio after two sorts for PhoP signalling”: median about 0, highest 2% from about 11 on). Only a selection was taken, and the highest values are over-represented in it overall.
For each of the variants below, state its enrichment ratio.
Give bare numbers.

Please review the following examples before continuing.
variant.string | reported
SSYV | 1.11
SSIV | 14.2

Please report enrichment ratio for every entry that follows.
1. SSPV
2. SSWV
3. SILN

Result:
1. 1.03
2. 0.518
3. 8.2

Please report enrichment ratio for every entry that follows.
1. SSLN
2. SSMV

Result:
1: 6.84; 2: 18.9
